molecular target: T1, human FOLR1 protein, His Tag (ACRO FO1-H52H1) (human, UniProt P15328 25-233); assay: ELISA, coated hFOLR1-His, HEK293 supernatant
T1 construct: Bought protein coated on ELISA plates; not shown: His tag
T1 sequence (P15328 25-233 limits assumed): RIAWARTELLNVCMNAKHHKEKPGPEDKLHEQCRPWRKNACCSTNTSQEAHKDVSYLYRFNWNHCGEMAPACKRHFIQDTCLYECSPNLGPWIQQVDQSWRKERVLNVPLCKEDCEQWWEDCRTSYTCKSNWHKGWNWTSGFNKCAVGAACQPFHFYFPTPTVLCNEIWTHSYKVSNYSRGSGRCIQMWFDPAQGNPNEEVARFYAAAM
assay.endpoint: OD450
Field: value (include unit after the number)

[
  {
    "binder": "F26 (antibody, V domains shown, Tested as full-length IgG with an IgG1 Fc from HEK293, as supernatant or purified; also called clone F26; anti-FOLR1 antibody F26) VH: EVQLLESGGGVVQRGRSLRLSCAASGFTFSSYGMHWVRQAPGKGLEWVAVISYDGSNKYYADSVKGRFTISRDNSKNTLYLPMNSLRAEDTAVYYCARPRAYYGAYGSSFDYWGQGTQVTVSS VL: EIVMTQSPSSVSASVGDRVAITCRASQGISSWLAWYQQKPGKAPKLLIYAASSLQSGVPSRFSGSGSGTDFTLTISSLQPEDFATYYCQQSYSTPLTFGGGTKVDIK",
    "endpoint.value": "2.43 OD450"
  }
]

Lab note: measured OD450 of F48 (antibody, V domains shown, Tested as full-length IgG with an IgG1 Fc from HEK293, as supernatant or purified; also called clone F48; anti-FOLR1 antibody F48) VH: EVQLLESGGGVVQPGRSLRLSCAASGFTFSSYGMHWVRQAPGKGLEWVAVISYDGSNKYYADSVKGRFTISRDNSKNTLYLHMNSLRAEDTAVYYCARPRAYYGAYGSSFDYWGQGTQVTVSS VL: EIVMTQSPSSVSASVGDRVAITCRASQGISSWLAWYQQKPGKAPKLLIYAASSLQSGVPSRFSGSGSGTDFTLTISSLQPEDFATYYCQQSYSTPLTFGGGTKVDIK was 2.54 OD450

FYI, the data here is from patent US20240245796A1.
